- Test system: K562 CRISPRi cells
- Assay overview: Constant region variant library pooled growth screen, K562
- Type: cell-based, human
- Condition details: sgRNA constant region variant; activity relative to unmodified constant region cr995; mean CRISPRi activity
Measured Mean relative activity by item
Observation type: Mean relative activity

Molecule | Number
cr963 (nucleic acid, listed as DNA, chemistry not fully specified) guide: GTTTAAGAGCTAAGCTGGAAACAGCATAGCAAGTTTAAATAACGCTAGTCGGTTATCAACTTGAAAAAGTGGCGCTGAGTCAGCGCT | 0.01551
cr987 (nucleic acid, listed as DNA, chemistry not fully specified) guide: GTTTAAGAGCTAAGCTGGAAACAGCATAGCAAGTTTAAATAAGGCTAGGCCGTTATCAACTTGATAAAGTGGCACCGAGTCGGTGCT | 0.01815
cr114 (nucleic acid, listed as DNA, chemistry not fully specified) guide: GTTTAAGAGCTAAGCTGGAAACAGCATAGCAAGTTTAAATAATGTTAATCAGTTATCAACTTGAAAAAGTGGCCCCGAGTCGGGGCT | 0.008589
cr518 (nucleic acid, listed as DNA, chemistry not fully specified) guide: GTTTAAGAGCTAAGCTGGAAACAGCATAGCAATTTTAAATGAGGCTAGTCCGTTATCAACTTGAAAAAGTGGCACCGAGTCGGTGCT | 0.006889
cr295 (nucleic acid, listed as DNA, chemistry not fully specified) guide: GTTTAAGAGCTAAGCTGGAAACAGCATAGCAAGGTTAAATAAGGCTAGTCCGTTATCAACTTGAAAAAGTGGGACCGAGTCGGTCCT | 0.008268
cr324 (nucleic acid, listed as DNA, chemistry not fully specified) guide: GTTTAAGAGCTAAGCTGGAAACAGCATAGCAAGTTTAAATAACGCTAGTCGGTTATCAACCTGAAAAGGTGGCACCGAGTCGGTGCT | 0.01711
cr137 (nucleic acid, listed as DNA, chemistry not fully specified) guide: GTTTAAGAGCTAAGCTGGAAACAGCATAGCAAGTTTAAATAGGGCTAGTCCTTTATCAACTTGCAAAAGTGGCACCGAGTCGGTGCT | 0.008516
